study-system: T1, cynomolgus CD3εδ-Fc heterodimer (Cy CD3ε Fc / CD3δ Fc-HIS) (cynomolgus, UniProt Q95LI8 22-100)
T1 construct: range 22-100; Produced in HEK 293 cells; also called Cy CD3εδ Fc heterodimer; not shown: Fc-HIS part of CD3δ Fc-HIS
T1 sequence (chain, as listed by the source mutant, form in doubt, chain 1 of 2): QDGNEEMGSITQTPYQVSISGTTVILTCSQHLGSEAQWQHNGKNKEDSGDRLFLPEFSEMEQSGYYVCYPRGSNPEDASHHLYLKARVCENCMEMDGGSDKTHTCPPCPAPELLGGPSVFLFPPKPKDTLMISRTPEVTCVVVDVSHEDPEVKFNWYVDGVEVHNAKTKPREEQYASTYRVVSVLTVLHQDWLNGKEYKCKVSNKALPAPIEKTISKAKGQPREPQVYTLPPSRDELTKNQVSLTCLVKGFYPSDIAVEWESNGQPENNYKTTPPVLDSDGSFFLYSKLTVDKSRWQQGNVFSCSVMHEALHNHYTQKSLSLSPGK
T1 sequence (Q95LI8 22-100, stated change not applied, form in doubt, chain 2 of 2): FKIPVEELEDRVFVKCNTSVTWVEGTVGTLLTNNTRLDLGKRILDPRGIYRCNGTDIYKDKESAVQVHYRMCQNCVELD
protocol: SPR (Biacore 8K), CHO-produced Fab, monovalent, pH 6.0
Quick reference: Kd of the listed items.
parameter: Kd

binder="Fab of ADI-48587 (Antibody No. 2) (Fab, V domains shown, Fab made by papain digestion of the human IgG1 (yeast- or CHO-produced); also called Antibody No. 2 Fab; ADI-48587 Fab) VH: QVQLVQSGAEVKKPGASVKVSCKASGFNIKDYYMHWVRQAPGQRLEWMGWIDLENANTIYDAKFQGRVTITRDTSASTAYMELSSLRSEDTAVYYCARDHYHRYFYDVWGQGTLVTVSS VL: DIVMTQSPDSLAVSLGERATINCKSSQSLLNARTGHNYLAWYQQKPGQPPKLLIYWASTRESGVPDRFSGSGSGTDFTLTISSLQAEDVAVYYCKQSHSHRTFGGGTKVEIK" recorded_result="25.4 nM"
binder="Fab of ADI-74968 (Antibody No. 6) (Fab, V domains shown, Fab made by papain digestion of the human IgG1 (yeast- or CHO-produced); also called Antibody No. 6 Fab; ADI-74968 Fab) VH: QVQLVQSGAEVKKPGASVKVSCKASGFNIKDYYMHWVRQAPGQRLEWMGWIDLENANTIYDAKFQGRVTITRDTSASTAYMELSSLRSEDTAVYYCARDAYHRYFYDVWGQGTLVTVSS VL: DIVMTQSPDSLAVSLGERATINCKSSQSLLNARTGHNYLAWYQQKPGQPPKLLIYWASTRESGVPDRFSGSGSGTDFTLTISSLQAEDVAVYYCKQSYSHRTFGGGTKVEIK" recorded_result="6.18 nM"
binder="Fab of ADI-74965 (Antibody No. 3) (Fab, V domains shown, Fab made by papain digestion of the human IgG1 (yeast- or CHO-produced); also called Antibody No. 3 Fab; ADI-74965 Fab) VH: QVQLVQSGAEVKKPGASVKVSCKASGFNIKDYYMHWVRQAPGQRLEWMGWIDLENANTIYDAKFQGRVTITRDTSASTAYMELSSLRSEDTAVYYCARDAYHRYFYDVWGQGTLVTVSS VL: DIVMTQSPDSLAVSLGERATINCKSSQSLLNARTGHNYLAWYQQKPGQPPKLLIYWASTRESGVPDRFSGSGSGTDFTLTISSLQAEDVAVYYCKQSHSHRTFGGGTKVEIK" recorded_result="11.3 nM"
binder="Fab of ADI-74966 (Antibody No. 4) (Fab, V domains shown, Fab made by papain digestion of the human IgG1 (yeast- or CHO-produced); also called Antibody No. 4 Fab; ADI-74966 Fab) VH: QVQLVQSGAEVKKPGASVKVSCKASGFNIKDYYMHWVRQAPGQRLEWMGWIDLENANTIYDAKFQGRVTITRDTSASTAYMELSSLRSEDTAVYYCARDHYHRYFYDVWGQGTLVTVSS VL: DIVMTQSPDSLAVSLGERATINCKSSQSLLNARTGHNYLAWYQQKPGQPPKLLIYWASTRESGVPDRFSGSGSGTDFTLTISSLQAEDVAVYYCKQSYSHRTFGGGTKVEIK" recorded_result="26.1 nM"
